The reported measurements were obtained from patent US8735553.

- system: human PD-1 expressed on cells (human, UniProt Q15116 25-288)
- Sequence (Q15116 25-288): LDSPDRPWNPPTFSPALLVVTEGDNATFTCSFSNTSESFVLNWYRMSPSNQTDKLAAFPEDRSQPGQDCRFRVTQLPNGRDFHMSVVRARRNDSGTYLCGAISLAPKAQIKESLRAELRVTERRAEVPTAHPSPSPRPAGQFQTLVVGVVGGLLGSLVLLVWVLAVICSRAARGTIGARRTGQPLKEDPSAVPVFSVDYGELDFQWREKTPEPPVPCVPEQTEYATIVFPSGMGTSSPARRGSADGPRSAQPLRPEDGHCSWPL
- assay.text: cell-based or functional assay
readout.kind: IL-2 release in HuT78/PD-1, Top line (pg/mL)
Report the figure in pg/mL without appending any unit label.

May I ask what IL-2 release in HuT78/PD-1, Top line has been recorded for hu326-2 F95Y (antibody, V domains shown, mAb; constant regions not restated (hu326-1 is IgG2 / kappa); Forward mutation to human) VH: QVQLVQSGSELKKPGASVKVSCKASGYTFTNYGMNWVRQAPGQGLEWMGWINNNNGEPTYAQGFRGRFVFSLDTSASTAYLQISSLKTEDTAVYYCARDVMDYWGQGTTVTVSS VL: DIVLTQSPASLAVSPGQRATITCRASESVDNYGYSFMHWYQQKPGQPPKLLIYRASNLESGVPARFSGSGSRTDFTLTINPVEANDTANYYCQQSKEYPTFGGGTKVEIK ?
1030

Same question for hu326-2 A16E (antibody, V domains shown, mAb; constant regions not restated (hu326-1 is IgG2 / kappa); Back mutation to murine) VH: QVQLVQSGSELKKPGESVKVSCKASGYTFTNYGMNWVRQAPGQGLEWMGWINNNNGEPTYAQGFRGRFVFSLDTSASTAYLQISSLKTEDTAVYFCARDVMDYWGQGTTVTVSS VL: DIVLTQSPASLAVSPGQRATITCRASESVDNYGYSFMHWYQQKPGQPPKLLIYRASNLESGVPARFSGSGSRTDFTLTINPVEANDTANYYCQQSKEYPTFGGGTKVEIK please.
1050
